- Tested on: Escherichia coli TOP10
- PROTOCOL DESCRIPTION: shrunken log2 fold change of peptide-encoding DNA abundance (4.5 h post-induction vs induction); higher = less antimicrobial activity (less host growth inhibition)
- CONDITION CONTEXT: time post-induction: 4.5 h; library: site-saturation at positions 5, 18, 19, 20
If the reported shrunken log2 fold change equals or exceeds -0.01, assign TRUE. If not, assign FALSE.

sequence=RRIRFRPPRLPRPRPRPTEHPRP class=FALSE
sequence=RRIRQRPPRLPRPRPRPYICPRP class=FALSE
sequence=RRIRRRPPRLPRPRPRPDHQPRP class=FALSE
sequence=RRIRCRPPRLPRPRPRPWWLPRP class=FALSE
sequence=RRIRCRPPRLPRPRPRPPPMPRP class=TRUE
sequence=RRIRQRPPRLPRPRPRPRTDPRP class=TRUE
sequence=RRIRDRPPRLPRPRPRPIGFPRP class=TRUE
sequence=RRIRIRPPRLPRPRPRPHTQPRP class=FALSE
sequence=RRIRFRPPRLPRPRPRPCDDPRP class=TRUE
sequence=RRIRDRPPRLPRPRPRPFYVPRP class=FALSE
sequence=RRIRSRPPRLPRPRPRPSTPPRP class=FALSE
sequence=RRIRKRPPRLPRPRPRPYFNPRP class=FALSE
sequence=RRIRWRPPRLPRPRPRPTEIPRP class=FALSE
sequence=RRIRCRPPRLPRPRPRPAICPRP class=TRUE
sequence=RRIRSRPPRLPRPRPRPTSPPRP class=TRUE

* * *

We begin with a simple list: items and their reported shrunken log2 fold change.
- Tested on: Escherichia coli TOP10
- PROTOCOL DESCRIPTION: shrunken log2 fold change of peptide-encoding DNA abundance (4.5 h post-induction vs induction); higher = less antimicrobial activity (less host growth inhibition)
- CONDITION CONTEXT: time post-induction: 4.5 h; library: site-saturation at positions 5, 18, 19, 20
MEASURED PARAMETER: shrunken log2 fold change

sequence=RRIRQRPPRLPRPRPRPFNDPRP recorded_number=0.0753
sequence=RRIRGRPPRLPRPRPRPCSMPRP recorded_number=-0.0323
sequence=RRIRQRPPRLPRPRPRPFEEPRP recorded_number=-0.138
sequence=RRIRARPPRLPRPRPRPMSSPRP recorded_number=0.0476
sequence=RRIRFRPPRLPRPRPRPWVTPRP recorded_number=-0.0635
sequence=RRIRFRPPRLPRPRPRPKKLPRP recorded_number=0.173
sequence=RRIRTRPPRLPRPRPRPWLQPRP recorded_number=-0.187
sequence=RRIRHRPPRLPRPRPRPESQPRP recorded_number=-0.173

* * *

- Test system: Escherichia coli TOP10;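 also: peptides expressed intracellularly from a pBAD plasmid library in pooled LB shake-flask culture, induced with 0.3% L-arabinose, DNA abundance read by NGS, three biological replicates, DESeq2 with apeglm shrinkage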
- PROTOCOL DESCRIPTION: shrunken log2 fold change of peptide-encoding DNA abundance (4.5 h post-induction vs induction); higher = less antimicrobial activity (less host growth inhibition)
- CONDITION CONTEXT: time post-induction: 4.5 h; library: site-saturation at positions 5, 18, 19, 20
Item-by-item account of shrunken log2 fold change
MEASURED PARAMETER: shrunken log2 fold change

sequence=RRIRFRPPRLPRPRPRPPVKPRP measured_parameter="shrunken log2 fold change" recorded_number=-0.00563
sequence=RRIRNRPPRLPRPRPRPVGEPRP measured_parameter="shrunken log2 fold change" recorded_number=0.112
sequence=RRIRFRPPRLPRPRPRPRGIPRP measured_parameter="shrunken log2 fold change" recorded_number=-0.123
sequence=RRIRKRPPRLPRPRPRPLQQPRP measured_parameter="shrunken log2 fold change" recorded_number=0.26
sequence=RRIRHRPPRLPRPRPRPFKQPRP measured_parameter="shrunken log2 fold change" recorded_number=-0.0287
sequence=RRIRRRPPRLPRPRPRPSSVPRP measured_parameter="shrunken log2 fold change" recorded_number=0.131
sequence=RRIRWRPPRLPRPRPRPKDPPRP measured_parameter="shrunken log2 fold change" recorded_number=-0.0777
sequence=RRIRSRPPRLPRPRPRPASLPRP measured_parameter="shrunken log2 fold change" recorded_number=-0.0507
